So I've got a bunch of molecules here, and I need their melting point values.

melting point for CC(=O)C1CCC2C3CCC4CC(O)CCC4(C)C3C(O)CC12C (centres undefined) is 152 to 154 °C

melting point for COCCc1nc2c(N)nc3ccccc3c2n1CCCCNC(=O)c1nccc2ccccc12 is 61 to 63 °C

melting point for Cc1cc(Cl)nnc1-c1cccc(C#N)c1 is 153 to 155 °C

melting point for CCOCc1nc2c(N)nc3cc(C=O)ccc3c2n1CC(C)(C)O is 203 to 205 °C

----------
So I've got a bunch of compounds here, and I need their melting point values.

melting point for COc1ccc2c(c1)c(N1CCN(C)CC1)nn2S(=O)(=O)c1ccccc1 is 165 to 167 °C

melting point for Cc1nc2cccnc2n(-c2ccc(F)cc2)c1=O is 270 to 271 °C

melting point for N#CCCCCn1nc(C(N)=O)c2ccccc21 is 182 to 185 °C

melting point for NC(=O)c1cc(-c2ccncc2)nnc1Cl is > 300 °C

melting point for CC(C)(C)c1cc(/C=C/C=C/C(=O)NCCN2CCC(c3c[nH]c4ccccc34)CC2)cc(C(C)(C)C)c1O is 108 to 115 °C

melting point for COC(=O)C(CC1CCCC1)c1ccc(I)cc1 (stereo not given) is 51 to 54 °C

melting point for Cn1cncc1C(O)(c1ccc(C=O)cc1)c1ccc2c(c1)c(-c1cccc(Cl)c1)nc1nnnn12 (stereo not given) is 170 °C

melting point for COc1cccc(S(=O)(=O)c2cccc(F)c2C#N)c1 is 113 to 117 °C

melting point for CCCCc1oc2ccccc2c1C(=O)c1nc(Br)c(-c2ccc(OC)cc2)o1 is 62 to 64 °C

melting point for CC(=O)OC1CSC(Oc2cccc3oc(C)nc23)C(OC(C)=O)C1OC(C)=O (stereo not given) is 149 to 151 °C

melting point for COc1cc(OC(=O)c2ccc(OC)c(C34CC5CC(CC(C5)C3)C4)c2)ccc1C(=O)O is 199 to 200 °C

melting point for CC(=O)Nc1ccc(-c2nc(C(=O)Nc3nccs3)c(-c3ccccc3C)[nH]2)cc1 is 269 to 271 °C

melting point for CCC1CC2=C(CCC(=O)C2)C2CCC3(C)C(=CCC3O)C12 (stereo not given) is 102 to 105 °C

melting point for COC(=O)CNC(=O)c1ccc2ccccc2c1 is 118 °C

melting point for N#Cc1ccc(C(=C2C3CC4CC(C3)CC2C4)c2ncc[nH]2)cc1 is 155 °C

----------
measured-metric: melting point

melting point for COC(=O)COc1ccc(OCC2CCN(c3ccncc3)CC2)cc1 is 127 to 129 °C

melting point for CCCCCCCCCCCCCCCCOCC(O)CCSCCCN(C)C (stereo unspecified) is 30 to 32 °C

melting point for CC(C)CCCC(C)C1CCC2C3CC=C4CC(NC(=O)CCN(C)C(=O)OC5c6ccccc6-c6ccccc65)CCC4(C)C3CCC12C (stereo unspecified) is 124 to 128 °C

melting point for O=c1[nH]c2ncc(Br)cc2o1 is 229 to 230 °C

melting point for O=CC=Cc1cnn(-c2c(Cl)cc(C(F)(F)F)cc2Cl)n1 is 68 to 69 °C

melting point for Fc1ccc(CCCCN2CCN(c3ncc(F)cn3)CC2)cc1 is 59 to 61 °C

melting point for O=c1[nH]c2cc(-c3cn4ccccc4n3)ccc2s1 is > 270 °C

melting point for COc1ccc(C#N)nc1C is 114 to 116 °C

melting point for C=CCOc1ccc(C(=O)CC(C)(C#N)c2ccc(OC)cc2OC)cc1 (stereo unspecified) is 77.8 to 78.5 °C

melting point for Cc1oc(-c2ccccc2)nc1CCCc1ccc(CC(C(=O)O)c2cccc(-c3ccccc3)c2)cc1 (stereo unspecified) is 75 to 80 °C

melting point for COCC1CN(c2ccc3cc(OC(C)=O)ccc3c2)C(=O)O1 (stereo unspecified) is 110 to 112 °C

melting point for Cc1nnc(-c2ccc3occ(-c4ccc5c(c4)C(C)(C)CS5)c3c2)o1 is 159 to 160 °C

melting point for N#Cc1ccc(S(=O)(=O)N2CCN(c3ccncc3)CC2)cc1 is 212 to 213 °C

melting point for Cc1cc(C)nc(-n2nc(S(=O)(=O)Nc3c(Cl)cccc3Cl)nc2N)n1 is 306 to 312 °C

melting point for CCC(CC)C(=O)C(C1CCc2ccccc2N1)N1CCN(c2cccc3[nH]ccc23)CC1 (stereo unspecified) is 145 to 148 °C

melting point for NC(=O)NCCCCCCNC(N)=O is 197 to 200 °C

melting point for CC(C)c1ccc2c(c1)C(C(=O)O)c1ccccc1CO2 (stereo unspecified) is 161 to 162 °C

melting point for COc1cc(C)c(C)cc1NC(=O)N1CCN(c2ccccc2)CC1 is 143 to 144 °C

melting point for O=C(O)CCOc1cccc(CNC(=O)C2Cc3ccccc3N2S(=O)(=O)c2ccc(-c3cccc(C(F)(F)F)c3)cc2)c1 (stereo unspecified) is 70 °C

melting point for CCCCc1nc2c(N)nc3ccc(O)cc3c2n1CCCCNS(C)(=O)=O is 223 to 227 °C

melting point for CC(CNc1ccc(Cl)cc1)COc1ccc(C(=O)O)cc1 (stereo unspecified) is 148 to 150 °C

----------
So I've got a bunch of compounds here, and I need their melting point values.

melting point for CCCCCCc1nnc2n1-c1ccc(Cl)cc1C(c1ccccc1)=NC2 is 75 to 78 °C

melting point for COc1ccc(C(=O)CN2CCN(c3cccccc3=O)CC2)cc1OC is 132 to 135 °C

melting point for NC(=S)N1CCN(c2nc3cccccc-3n2)CC1 is 245 to 247 °C

melting point for CCCCC[C@H]1CC[C@H](CCC2CCC(c3ccc(Oc4ccc(N)cc4)cc3)(c3ccc(Oc4ccc(N)cc4)cc3)CC2)CC1 is 171 to 172 °C

melting point for O=C1C(=O)c2ccccc2C2=C1SCC1(CCN(c3cnccn3)CC1)O2 is 255 to 256 °C

melting point for CC(C)(C)OC(=O)N1Cc2c(Cl)sc(Cl)c2C1 is 112 to 114 °C

----------
So I've got a bunch of molecules here, and I need their melting point values.

melting point for COc1ccc(CS(=O)(=O)c2ccc(S(N)(=O)=O)s2)cc1 is 198 to 203 °C

melting point for Cc1cc(C)c2c(c1C)OCC2c1ccc(Br)cc1 (stereo not given) is 72 to 73 °C

melting point for COc1ccc(S(=O)(=O)C(C)(Cc2ccc(Br)cc2)C(=O)NO)cc1 (stereo not given) is 86 to 88 °C

melting point for CCCCS(=O)(=O)N(Cc1ccc(-c2ccccc2-c2nnn[nH]2)cc1)[C@@H](C)C(=O)O is 90 °C

melting point for CN(C)C(=O)c1ccc(C(N)=O)cc1S(N)(=O)=O is 202 to 205 °C

melting point for COc1cccc(OC)c1-c1ccc(C[C@H](NC(=O)c2c(Cl)cc(-c3nccs3)cc2Cl)C(=O)O)cc1 is 142 °C

melting point for COc1ccc(-c2onc3ccc(Br)cc23)cc1 is 137 °C

melting point for Oc1cc2c(cc1F)[C@H](O)[C@H](N1CCC(O)(c3ccc(F)cc3)CC1)CO2 (relative stereo) is 160 to 161 °C

melting point for COc1ccc(C(=O)N(c2ccccc2)c2ccc(OCCCN(C)C)cc2)c(OC)c1 is 78.5 to 82.5 °C

melting point for O=C1c2ccccc2-n2cnc(-c3cccc(Cl)c3)c2[C@@H]2CCCN12 is 242 to 243 °C

----------
So I've got a bunch of compounds here, and I need their melting point values.

melting point for COC(=O)CN(c1cc(OCc2ccccc2)cc2ccc(OC)cc12)S(N)(=O)=O is 137 to 139 °C

melting point for NCc1c(-c2ccc(Oc3ccccc3)cc2)c2c(N)ncnc2n1C1CCCC1 is 196 to 198 °C

melting point for CCn1c(Cl)c(C=O)c(=O)n(CC)c1=NO is 115 to 116 °C

melting point for CN(CC(=O)NO)S(=O)(=O)Cc1cccc(C(F)(F)F)c1 is 128 to 129 °C

melting point for C=CCOc1ccccc1/C=C\C(=O)O is 80 to 82 °C

melting point for OC1CSC(Oc2cc(F)cnc2Cl)C(O)C1O (stereo not given) is 143 °C

melting point for CCN(CC)C(=O)COc1ccc(S(=O)(=O)c2ccc(O)cc2)cc1 is 223 to 226 °C

melting point for COc1cc(OCCN2CCCC2)c2c(=O)[nH]c(-c3cc(C)nc(C)c3)nc2c1 is 190 to 191 °C

melting point for Cc1cc(-c2nc3ccc(CCN4CCCC4)cc3c(=O)[nH]2)cc(C)n1 is 212 to 213 °C

melting point for CC(C)(C)OC(=O)N1CCC(CC(=O)Nc2cccc(-c3ccnc4c(C(=O)c5cccs5)cnn34)c2)CC1 is 173 to 175 °C

melting point for COC(Cn1cncn1)(OC)c1ccc(Cl)cc1Cl is 87.7 °C

melting point for COC(=O)c1cc2[nH]nc(N)c2s1 is 218 to 220 °C

melting point for COC(=O)CC(O)CP(=O)(C#Cc1c(-c2ccc(F)cc2)c2n(c1C(C)C)CCCC2)OC (stereo not given) is 145 to 146 °C

melting point for COc1ccc(Cn2c(=O)c3c(Cl)cc(Cl)cc3n(Cc3ccccc3)c2=O)cc1 is 138 to 143 °C

melting point for CCOC(=O)C(C)(C)Oc1ccc(OCCn2c(=O)sc3cc(C(=O)c4cccc(Cl)c4)ccc32)cc1 is 125 to 126 °C

melting point for OC1(c2ccc(Br)cc2)c2ccccc2C2=NCCN21 (stereo not given) is 194 to 196 °C

melting point for CC(Cc1ccc(Oc2cc(N3CCN(Cc4ccccc4)CC3)nc(Oc3ccccc3)n2)cc1)(Oc1ccccc1)C(=O)O (stereo not given) is 126 to 128 °C

melting point for CC(C)(C)OC(=O)N1CCN(c2cccc3ccoc23)CC1 is 98 to 100 °C

melting point for O=C1CCCN1[C@@H]1c2cc(C(F)(F)F)ccc2OC(CF)(CF)[C@H]1O (relative stereo) is 186 to 187 °C

melting point for CC(C)n1nc(-c2cc(C#N)c(N)nc2-c2ccccc2)ccc1=O is 197 to 198 °C
